biological target: Induced myeloid leukemia cell differentiation protein Mcl-1 (Homo sapiens); format: functional
Active and inactive are the calls of the source.
quantity.name: IC50

Below, each entry is followed by its recorded IC50 result.
# compound, IC50
measured = [
    ("Clc1cccc(/C=N/Nc2nc(Cl)nc3ccccc23)c1", "19 µM (not active)"),
    ("COc1ccc(C(CC(=O)N2CCCC2)c2c(OC)cc(OC)c3c(-c4ccccc4)cc(=O)oc23)cc1 (stereo not drawn)", "4.62 µM (active)"),
    ("Cc1ccc2c(c1)NC(=O)c1cccnc1N2", "10.5 µM (not active)"),
    ("Cc1ccc2c(c1C)NC(C(=O)O)C1CC=CC21 (stereo not drawn)", "3.17 µM (active)"),
    ("O=C(Nc1ccc(Cl)cc1)Nc1nnc(/C=C/c2ccccc2)s1", "5.89 µM (active)"),
]

Note to self: IC50 recorded for Oc1c(Cl)cc(Cl)cc1Sc1cc(Cl)cc(Cl)c1O was 1.9 µM (active)

// field: IC50; key: Cn1c(N)c(C(=O)COC(=O)c2cc(-c3ccco3)nc3ccccc23)c(=O)n(Cc2ccccc2)c1=O ; value = 2.95 µM (active)

Input Cn1cnnc1SCC(=O)Nc1sc2c(c1C(N)=O)CCC2 . Output IC50: 3.16 µM (active)

* * *

molecular target: Nonstructural protein 1 (Influenza A virus, UniProt Q194T2); format: functional, Influenza A virus (A/California/07/2009(H1N1))
Calls of active or inactive are those of the source.
quantity.name: IC50

Illustrative cases are given below, each with its answer.
# compound, reading
rows = [
    ("COc1cc(N/N=C/c2ccccc2O)ncn1", "5.73 µM (active)"),
    ("O=S(=O)(O)c1cccc2c(N=Nc3ccc(O)c4ncccc34)cccc12", "4.68 µM (active)"),
    ("CN1CCC(CN)(N2CCN(c3ccccc3)CC2)CC1", "> 100 µM (active)"),
    ("CC1COCC(C)N1C1=C(Cl)C(=O)c2ccccc2C1=O (stereo unspecified)", "17.9 µM (active)"),
]

Item: Cc1ccc(S(=O)(=O)Nc2cc(Cl)c(O)c3ncccc23)cc1 | IC50: 11.5 µM (active)

For reference, reported IC50 for Cc1cc2cc(CN=C(S)Nc3ccc(OC(F)(F)F)cc3)ccc2n1C stands at > 100 µM (active)

* * *

target: Ubiquitin-conjugating enzyme E2 N (Homo sapiens, UniProt P61088); type: functional;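 also: Dose-response confirmation in a TR-FRET assay detecting UBC13-driven polyubiquitin chain formation, inhibition measured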
Structures can show the parent of a compound that is named as a salt. The source made the active and inactive calls.
quantity.name: IC50

# molecule, quantity.name, reading
records = [
    ("CN1CCC(CN)(N2CCN(c3ccccc3)CC2)CC1", "IC50", "> 20 µM (inactive)"),
    ("COc1ccccc1NC(=O)COC(=O)c1cc(C)nc2ccccc12", "IC50", "> 20 µM (inactive)"),
    ("CCCCOc1ccc(C(=O)NNC(=O)c2cnccn2)cc1OC", "IC50", "> 20 µM (inactive)"),
    ("Cc1nn2c(nc(N3CCOCC3)c3ccccc32)c1C=C(C#N)C#N", "IC50", "> 20 µM (inactive)"),
    ("O=C(NCCCN1CCN(c2ccccc2)CC1)C1CCCN(c2ncnc3c2nc2n3CCCCC2)C1 (stereo unspecified)", "IC50", "7.51 µM (active)"),
]

The molecule identified as CCN(CC)CCCNc1nc2cc(OC)c(OC)cc2c2nc(-c3ccccc3)nn12 registered its IC50 at > 20 µM (inactive)

Summary for this molecule, COc1ccc(NC(S)=NNC(=O)c2nnn(-c3ccccc3)c2C)cc1 : IC50 is > 20 µM (inactive)

Lab note: NCCCNCCCCNCCCN [SPERMINE TETRAHYDROCHLORIDE] gave IC50 of 14.3 µM (active)

IC50 measured on Cc1cccc2c1-c1sc(C(=O)NCCCN3CCC(C)CC3)cc1CO2 = > 20 µM (inactive)

Cc1ccc(N(C(=O)c2snc(C(N)=O)c2N)C(C(=O)NCC2CCCO2)c2c[nH]c3ccccc23)cc1 (stereo unspecified) yielded IC50 of 12.1 µM (active)

The recorded IC50 for C[C@@H](CN1C2=NC[C@H](Cc3ccccc3)N2C[C@H]1Cc1ccc(O)cc1)NC(=O)CCC1CCCCC1 is > 20 µM (inactive)

* * *

biological target: Alkaline phosphatase, tissue-nonspecific isozyme (Homo sapiens); test: human TNAP enzyme inhibitors, SAR follow-up, biochemical, luminescent, dose response (AID 1056)
The source made the active and inactive calls.
Respond only with the outcome that fits, drawn from active, inactive

# compound.smiles, subject.of.test, assigned.class
rows = [
    ("NCc1cc(-c2cccnc2)no1", "Alkaline phosphatase, tissue-nonspecific isozyme (Homo sapiens)", "inactive"),
    ("O=C(Cn1ccnc1)c1ccc(O)c(O)c1", "Alkaline phosphatase, tissue-nonspecific isozyme (Homo sapiens)", "inactive"),
]

Request: Write down the call the test reported for this molecule. Item: Cc1ccc(-c2nnc(SCC(=O)c3ccc(O)c(O)c3)n2C)cc1
Response: inactive

Request: Would you mind telling me which call this test gave O=S(=O)(c1ccc2ccccc2c1)n1ccc2ccccc21 ?
Response: inactive

Request: Kindly provide the recorded test outcome for the following molecule: COc1ccc2c(c1)CCc1c-2n[nH]c1C(=O)O
Response: active

Request: I'd appreciate the recorded outcome for Cc1cc(C)nc(SCC(=O)c2ccc(Cl)cc2Cl)n1 from this test.
Response: inactive

Request: // param item: CNC(=O)c1n[nH]c2c1COc1ccccc1-2 ; yields the recorded call
Response: inactive

Request: Write down the call the test reported for this molecule. Item: c1cncc(-c2cc[nH]n2)c1
Response: inactive

* * *

molecular target: Peroxisome proliferator-activated receptor gamma/Nuclear receptor coactivator 2 (Homo sapiens); experiment: TR-FRET dose response biochemical High Throughput Screening assay for agonists of the steroid receptor coactivator 2 (SRC-2) recruitment by the peroxisome proliferator-activated receptor gamma (PPAR gamma): non-selective agonists. [Related pubchem assays: 1297, 1032 ]; assay type: functional
quantity.name: EC50

Guide cases for EC50, answers given:
# compound, EC50
records = [
    ("c1ccc(-c2nnsc2-c2nc3ccccc3[nH]2)cc1", "10.3 µM (not active)"),
    ("CCOC(=O)C1CCCN(CC(=O)Nc2c(C(=O)OC)[nH]c3ccc(Br)cc23)C1 (centres undefined)", "> 26.5 µM (not active)"),
    ("CC(Sc1nnc(-c2ccc(Cl)cc2Cl)n1Cc1ccccc1)C(=O)Nc1nccs1 (centres undefined)", "> 79.4 µM (not active)"),
]

So, O=C(Nc1nc2c(s1)CN(Cc1ccccc1)CC2)c1cccc(S(=O)(=O)N2CCc3ccccc32)c1 ? Its EC50 was 14.8 µM (not active)

* * *

Listing of entries alongside the reported EC50.
target: Luciferin 4-monooxygenase (Photinus pyralis, UniProt P08659); assay: Counter Screen for Luciferase-based Assay Positives. [Related pubchem assays: 620, 618, 411 ]
Activity calls are given as the source filed them.

Below: 3 compounds and their reported EC50.
# compound.smiles, subject.of.test, EC50
data = [
    ("Cc1ccc2nc(-c3cccc(N)c3)oc2c1", "Luciferin 4-monooxygenase (Photinus pyralis, UniProt P08659)", "9.87 µM (active)"),
    ("CCOc1ccc2nc(NC(=O)c3ccoc3C)sc2c1", "Luciferin 4-monooxygenase (Photinus pyralis, UniProt P08659)", "6.49 µM (active)"),
    ("O=S(=O)(c1ccc(Cl)cc1)c1snnc1-c1ccccc1", "Luciferin 4-monooxygenase (Photinus pyralis, UniProt P08659)", "3.73 µM (active)"),
]

Query Cc1ccc(-n2nc3ccc(N)cc3n2)cc1 yields EC50 of > 100 µM (not active)

* * *

Some compounds, each annotated with its measured IC50.
target: Protein skinhead-1 (Caenorhabditis elegans); type: functional
The source made the active and inactive calls.

Some entries whose results are on file:
# compound, IC50
rows = [
    ("O=C(CCN1C(=O)/C(=C/c2ccccc2Cl)SC1=S)Nc1ccccc1C(=O)O", "> 100 µM (inactive)"),
    ("COc1ccccc1CNC(=O)C1CCN(C(=O)N(C)C)CC1", "> 100 µM (inactive)"),
    ("O=C(/C=C/Nc1ccc(F)cc1F)c1cccs1", "73.4 µM (inactive)"),
    ("Cn1c(=O)c2c(-c3ccccc3)n(-c3ccc(N)cc3)cc2n(C)c1=O", "73.6 µM (inactive)"),
    ("Clc1ccc(-n2nnc(-c3nccs3)n2)cc1Cl", "> 100 µM (inactive)"),
]

The reported IC50 of the compound COc1ccc(Nc2nc(C(=O)NCCCN3CCOCC3)cs2)cc1 was > 100 µM (inactive)

// IC50 lookup, compound = Cc1nc2ccccc2nc1OCc1ccccc1 , result: 18.2 µM (active)

Noted for Cc1cc2cc(CN=C(S)Nc3ccc(OC(F)(F)F)cc3)ccc2n1C : its IC50 reads > 100 µM (inactive)

The measured IC50 associated with COc1cccc(/C=C2\CC(C)Cc3c2nc2ccccc2c3C(=O)O)c1OC (centres undefined) reads > 100 µM (inactive)
